B1: PPEF2 (parent)
chain: DHSGFISLDEFRQTWKLFSSHMNI

variants of: B1; experiment: protein stability index of a GFP-peptide fusion (GPS, HEK-293T) (PSI 1-6); higher = more stable; details: c terminus: a fixed tail appended;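 note: lentivirally expressed fusions sorted by FACS into six bins by GFP to DsRed ratio, PSI derived from sequencing read proportions per bin multiplied by bin number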
Cut-off 2 on protein stability index, inclusive. At or above means 1; below means -1.

-- ask Exam item: decide whether the reported protein stability index for `DQSGFISLDEFRQTWKLFSSHMNI` is at least 2.
-- reply -1

-- ask Record: `DHSGFISLDEFRQTWYLFSSHMNI`
-- reply 1

-- ask Record: `DHSGFISLDKFRQTWKLFSSHMNI`
-- reply -1

-- ask Record: `DHSGFISLDEFRQTWKLFSSHSNI`
-- reply -1

-- ask Record: `DHSGFISLDEFRQTWDLFSSHMNI`
-- reply -1

-- ask Record: `DHSGFILLDEFRQTWKLFSSHMNI`
-- reply -1

Further cases:
-- ask Exam item: decide whether the reported protein stability index for `DHMGFISLDEFRQTWKLFSSHMNI` is at least 2.
-- reply -1

-- ask Record: `DHSGFISLDEFRQTWCLFSSHMNI`
-- reply 1
